Values compiled from patent US12421225B2.

Target: human Nav1.7 (Homo sapiens (Human), UniProt Q15858)
Sequence (Q15858 whole entry): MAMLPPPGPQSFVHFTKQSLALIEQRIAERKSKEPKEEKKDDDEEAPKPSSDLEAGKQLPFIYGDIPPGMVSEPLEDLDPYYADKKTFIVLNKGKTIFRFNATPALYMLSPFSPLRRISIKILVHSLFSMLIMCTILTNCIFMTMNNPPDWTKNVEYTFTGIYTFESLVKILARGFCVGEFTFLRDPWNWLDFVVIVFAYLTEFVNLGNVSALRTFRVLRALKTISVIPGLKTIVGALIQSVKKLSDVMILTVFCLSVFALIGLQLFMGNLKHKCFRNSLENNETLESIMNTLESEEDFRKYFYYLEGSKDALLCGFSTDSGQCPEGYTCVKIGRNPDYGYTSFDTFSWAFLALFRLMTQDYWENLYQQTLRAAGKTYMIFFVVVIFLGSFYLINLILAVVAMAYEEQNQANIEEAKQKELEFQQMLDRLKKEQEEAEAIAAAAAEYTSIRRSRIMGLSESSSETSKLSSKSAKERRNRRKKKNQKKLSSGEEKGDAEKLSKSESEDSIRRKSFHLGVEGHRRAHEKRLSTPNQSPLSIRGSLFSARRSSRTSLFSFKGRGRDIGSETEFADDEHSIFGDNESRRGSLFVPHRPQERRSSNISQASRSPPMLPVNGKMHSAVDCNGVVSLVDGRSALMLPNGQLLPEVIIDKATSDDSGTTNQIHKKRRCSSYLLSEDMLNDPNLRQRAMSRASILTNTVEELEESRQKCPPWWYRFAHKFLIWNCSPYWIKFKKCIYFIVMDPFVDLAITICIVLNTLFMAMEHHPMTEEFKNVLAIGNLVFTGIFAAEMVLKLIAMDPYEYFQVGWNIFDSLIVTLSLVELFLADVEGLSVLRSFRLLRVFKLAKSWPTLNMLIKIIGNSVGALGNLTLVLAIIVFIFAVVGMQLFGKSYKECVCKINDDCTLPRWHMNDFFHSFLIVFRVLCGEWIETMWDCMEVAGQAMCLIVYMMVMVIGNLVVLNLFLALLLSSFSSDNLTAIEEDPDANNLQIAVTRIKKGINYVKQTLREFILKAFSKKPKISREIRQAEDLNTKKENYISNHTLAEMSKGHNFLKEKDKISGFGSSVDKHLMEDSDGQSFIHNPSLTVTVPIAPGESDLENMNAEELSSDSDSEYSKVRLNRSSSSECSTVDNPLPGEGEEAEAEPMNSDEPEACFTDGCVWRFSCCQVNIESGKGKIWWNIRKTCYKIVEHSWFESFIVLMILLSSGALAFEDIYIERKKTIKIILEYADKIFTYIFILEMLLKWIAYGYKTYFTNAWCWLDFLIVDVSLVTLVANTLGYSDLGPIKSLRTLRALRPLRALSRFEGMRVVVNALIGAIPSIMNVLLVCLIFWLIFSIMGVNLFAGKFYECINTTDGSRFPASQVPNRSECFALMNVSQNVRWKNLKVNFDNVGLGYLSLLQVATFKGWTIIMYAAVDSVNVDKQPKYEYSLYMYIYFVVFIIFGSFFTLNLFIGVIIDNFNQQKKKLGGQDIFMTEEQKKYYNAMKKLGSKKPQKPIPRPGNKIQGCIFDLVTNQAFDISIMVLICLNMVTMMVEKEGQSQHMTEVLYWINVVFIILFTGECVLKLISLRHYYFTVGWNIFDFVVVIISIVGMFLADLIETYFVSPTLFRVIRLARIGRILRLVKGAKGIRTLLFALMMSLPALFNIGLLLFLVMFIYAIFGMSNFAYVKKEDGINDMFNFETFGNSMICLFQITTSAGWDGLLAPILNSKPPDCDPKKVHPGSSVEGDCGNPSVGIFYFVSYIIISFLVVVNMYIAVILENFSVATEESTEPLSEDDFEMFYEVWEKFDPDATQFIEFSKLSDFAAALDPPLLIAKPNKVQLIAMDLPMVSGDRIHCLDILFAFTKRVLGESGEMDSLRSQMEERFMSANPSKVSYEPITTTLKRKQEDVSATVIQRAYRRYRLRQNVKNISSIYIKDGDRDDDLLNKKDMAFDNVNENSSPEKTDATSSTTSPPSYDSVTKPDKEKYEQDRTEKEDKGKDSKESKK
Sequence (Q07699 19-218 partner): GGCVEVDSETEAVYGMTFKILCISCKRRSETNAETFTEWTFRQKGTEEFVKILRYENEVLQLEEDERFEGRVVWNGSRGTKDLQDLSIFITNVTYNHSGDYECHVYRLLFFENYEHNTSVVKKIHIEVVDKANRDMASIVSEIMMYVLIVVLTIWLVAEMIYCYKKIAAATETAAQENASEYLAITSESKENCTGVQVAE
Experiment: Human Nav1.7 inhibitory activity evaluation (automated patch clamp QPatch16X, HEK293A cells stably expressing human Nav1.7 and human Navβ1)
Type: cell-based
Conditions: HEK293A cells stably expressing human Nav1.7 and human Navβ1, automated patch clamp QPatch16X
measurement_kind: IC50

[
  {
    "molecule": "O=C(N[C@H]1COc2ccc(C(F)F)cc2C1)c1cn2c(n1)CCC(OCC(F)(F)F)C2 (some centres unmarked) [Example 40]",
    "measurement_kind": "IC50",
    "test_result": "< 10 µM"
  }
]

In: Return the recorded IC50 value; entry: CC(C)COC1CCc2nc(C(=O)N[C@H]3COc4ccccc4C3)cn2C1 (some centres unmarked) [Example 41]
Out: < 10 µM

In: Return the recorded IC50 value; entry: O=C(c1cn2c(n1)CCC(CCc1ccccc1)C2)N1CCC(Oc2ccccn2)C1 (centres unmarked) [Example 29]
Out: < 10 µM

In: Return the recorded IC50 value; entry: O=C(N[C@H]1COc2ccccc2C1)c1cn2c(n1)CCC(OCC(F)(F)F)C2 (some centres unmarked) [Example 37]
Out: < 10 µM

In: Return the recorded IC50 value; entry: CCC1CCn2nc(C(=O)N[C@H]3COc4ccc(C#N)cc4C3)cc2O1 (some centres unmarked) [Example 91]
Out: < 10 µM

In: Return the recorded IC50 value; entry: O=C(N[C@H]1COc2ccccc2C1)c1cn2c(n1)CCC(C1(F)CCC1)C2 (some centres unmarked) [Example 35]
Out: < 1 µM

In: Return the recorded IC50 value; entry: N#Cc1ccc2c(c1)C[C@@H](NC(=O)c1cc3n(n1)CCC(c1ccccc1C#N)O3)CO2 (some centres unmarked) [Example 72]
Out: < 1 µM

In: Return the recorded IC50 value; entry: CC(C)CCC1Cn2cc(C(=O)N[C@H]3COc4ccccc4C3)nc2CN1 (some centres unmarked) [Example 49]
Out: < 10 µM

---

Measured pIC50 accompanies every entry in the list below.
Target: human Nav1.7 (Homo sapiens (Human), UniProt Q15858)
Assay: Human Nav1.7 inhibitory activity evaluation (automated patch clamp QPatch16X, HEK293A cells stably expressing human Nav1.7 and human Navβ1)
Type: cell-based
Details: human Nav1.7, automated patch clamp
pIC50: −log10 of the molar value.

[
  {
    "molecule": "O=C(N[C@H]1COc2ccc(C(F)(F)F)cc2C1)c1nn2c(c1C(O)c1ccccn1)COCC2 (stereo partly shown)",
    "pIC50": "> 5.00"
  },
  {
    "molecule": "N#Cc1ccc2c(c1)C[C@@H](NC(=O)c1cc3n(n1)CC[C@H](COCC(F)(F)F)CO3)CO2 (single isomer, unassigned; isomer a) [572(isomer A)]",
    "pIC50": "> 5.00"
  },
  {
    "molecule": "O=C(N[C@H]1COc2ccc(CC(F)(F)F)cc2C1)c1cc2n(n1)CC(CCOCC(F)F)O2 (stereo partly shown)",
    "pIC50": "> 6.00"
  },
  {
    "molecule": "O=C(N[C@H]1COc2ccc(COCC(F)(F)F)cc2C1)c1cc2n(n1)CC(COCCOCC(F)(F)F)O2 (stereo partly shown)",
    "pIC50": "> 6.00"
  },
  {
    "molecule": "O=C(N[C@H]1COc2ccc(CC(F)F)cc2C1)c1cc2n(n1)CCC(CC1CCOCC1)O2 (stereo partly shown)",
    "pIC50": "> 5.00"
  },
  {
    "molecule": "O=C(N[C@H]1COc2ccc(C(F)(F)F)cc2C1)c1cc2n(n1)CCN(CC1CCOCC1)C2",
    "pIC50": "> 5.00"
  }
]

Now consider the entry below.
In: Return the recorded pIC50 value; entry: O=C(N[C@H]1COc2ccc(Cl)cc2C1)c1cn2c(n1)CC(CNCC(F)(F)F)CO2 (stereo partly shown)
Out: > 5.00

---

Biological target: human Nav1.5 (Homo sapiens (Human), UniProt Q14524)
Sequence (Q14524 whole entry): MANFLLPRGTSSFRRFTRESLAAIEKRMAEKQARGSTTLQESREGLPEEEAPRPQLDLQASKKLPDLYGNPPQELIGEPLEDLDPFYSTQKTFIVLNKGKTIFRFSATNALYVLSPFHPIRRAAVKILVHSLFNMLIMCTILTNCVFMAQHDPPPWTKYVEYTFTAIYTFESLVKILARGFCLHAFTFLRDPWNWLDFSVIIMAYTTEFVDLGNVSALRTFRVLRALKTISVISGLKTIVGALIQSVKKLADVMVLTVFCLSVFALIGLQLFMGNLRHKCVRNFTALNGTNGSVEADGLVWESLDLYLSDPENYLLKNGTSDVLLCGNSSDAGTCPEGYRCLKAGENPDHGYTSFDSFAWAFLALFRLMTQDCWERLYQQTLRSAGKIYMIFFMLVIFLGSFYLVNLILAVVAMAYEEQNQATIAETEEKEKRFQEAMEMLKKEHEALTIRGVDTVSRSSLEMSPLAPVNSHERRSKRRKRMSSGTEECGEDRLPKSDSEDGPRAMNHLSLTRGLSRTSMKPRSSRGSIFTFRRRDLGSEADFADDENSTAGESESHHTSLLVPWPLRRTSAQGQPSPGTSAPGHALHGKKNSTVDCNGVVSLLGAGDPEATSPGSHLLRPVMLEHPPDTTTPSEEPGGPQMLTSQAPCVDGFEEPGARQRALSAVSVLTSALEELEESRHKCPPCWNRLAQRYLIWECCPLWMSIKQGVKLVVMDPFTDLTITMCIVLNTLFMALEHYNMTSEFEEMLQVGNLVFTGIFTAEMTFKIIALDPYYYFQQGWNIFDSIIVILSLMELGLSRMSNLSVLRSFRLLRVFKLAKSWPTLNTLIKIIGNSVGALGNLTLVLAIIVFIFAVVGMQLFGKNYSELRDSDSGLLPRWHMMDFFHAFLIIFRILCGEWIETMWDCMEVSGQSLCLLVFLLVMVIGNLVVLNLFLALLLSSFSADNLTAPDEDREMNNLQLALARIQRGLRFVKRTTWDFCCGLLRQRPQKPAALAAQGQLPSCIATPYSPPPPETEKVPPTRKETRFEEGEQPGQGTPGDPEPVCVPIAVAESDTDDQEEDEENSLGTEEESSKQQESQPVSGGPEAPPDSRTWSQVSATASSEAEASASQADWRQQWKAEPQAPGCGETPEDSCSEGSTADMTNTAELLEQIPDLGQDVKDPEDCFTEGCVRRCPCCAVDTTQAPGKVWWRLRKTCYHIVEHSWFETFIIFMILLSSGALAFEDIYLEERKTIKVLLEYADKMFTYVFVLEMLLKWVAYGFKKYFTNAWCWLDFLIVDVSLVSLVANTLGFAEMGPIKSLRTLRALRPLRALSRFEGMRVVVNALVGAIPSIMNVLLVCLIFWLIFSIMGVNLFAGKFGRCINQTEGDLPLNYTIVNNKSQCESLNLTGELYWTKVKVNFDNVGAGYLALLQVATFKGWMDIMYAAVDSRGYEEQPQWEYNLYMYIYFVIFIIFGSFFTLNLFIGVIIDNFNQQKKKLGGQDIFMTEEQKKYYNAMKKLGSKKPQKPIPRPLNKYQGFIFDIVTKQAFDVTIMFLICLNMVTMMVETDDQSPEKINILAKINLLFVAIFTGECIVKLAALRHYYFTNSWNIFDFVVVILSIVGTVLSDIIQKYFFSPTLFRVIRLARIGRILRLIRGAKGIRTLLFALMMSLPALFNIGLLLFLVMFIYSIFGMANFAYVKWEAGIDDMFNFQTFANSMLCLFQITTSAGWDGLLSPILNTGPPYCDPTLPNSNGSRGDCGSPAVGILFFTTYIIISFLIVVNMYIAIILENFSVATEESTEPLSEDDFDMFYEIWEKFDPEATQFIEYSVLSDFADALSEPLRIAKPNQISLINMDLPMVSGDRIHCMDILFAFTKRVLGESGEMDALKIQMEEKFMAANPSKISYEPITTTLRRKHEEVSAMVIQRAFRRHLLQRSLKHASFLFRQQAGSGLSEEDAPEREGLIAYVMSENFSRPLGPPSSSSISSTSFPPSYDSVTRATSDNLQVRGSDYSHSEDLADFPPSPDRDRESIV
Test: Human Nav1.5 inhibitory activity evaluation (automated patch clamp QPatch16X, HEK293 cells stably expressing human Nav1.5)
Type: cell-based
Conditions: human Nav1.5, automated patch clamp
pIC50: −log10 of the molar value.
Measured pIC50 accompanies every entry in the list below.

// known answers, use as guide
[
  {
    "molecule": "O=C(N[C@H]1COc2ccc(COCC(F)(F)F)cc2C1)c1cc2n(n1)CCC(COCC(F)(F)F)CO2 (single isomer, unassigned) [602 (isomer A)]",
    "pIC50": "≤ 5.52"
  },
  {
    "molecule": "O=C(N[C@H]1COc2ccc(C(F)(F)F)cc2C1F)c1cc2n(n1)CC[C@H](C(F)F)O2 (single isomer, unassigned; isomer a) [579(isomer A)]",
    "pIC50": "5.52 to 6.00"
  },
  {
    "molecule": "COc1cccc2c1CC(NC(=O)c1cc3n(n1)CCC(c1ccccc1)O3)CO2 (stereo not shown)",
    "pIC50": "≤ 5.52"
  },
  {
    "molecule": "COc1cccc(CN2CCn3nc(C(=O)N[C@H]4COc5ccc(Cl)cc5C4)cc3C2)n1",
    "pIC50": "≤ 5.52"
  },
  {
    "molecule": "COC1c2cc(C(F)(F)F)ccc2OC[C@@H]1NC(=O)c1cc2n(n1)CC(COCC(F)(F)F)O2 (single isomer, unassigned; isomer b) [597(isomer B)]",
    "pIC50": "5.52 to 6.00"
  }
]

In: Return the recorded pIC50 value; entry: N#Cc1ccc2c(c1)C[C@@H](NC(=O)c1cc3n(n1)CC(CSCC(F)(F)F)O3)CO2 (stereo partly shown) [Example 199]
Out: ≤ 5.52

In: Return the recorded pIC50 value; entry: Cn1ccc(-c2ccc3c(c2)C[C@@H](NC(=O)c2cc4n(n2)CC(CCOC(F)(F)F)O4)CO3)n1 (stereo partly shown) [Example 212]
Out: ≤ 5.52

In: Return the recorded pIC50 value; entry: O=C(c1cn2c(n1)CNC(c1cccc(OC(F)(F)F)c1)C2)N1CC[C@H](Oc2cccc(C(F)F)n2)C1 (stereo partly shown)
Out: 5.52 to 6.00

In: Return the recorded pIC50 value; entry: O=C(N[C@H]1COc2ccc(COCC(F)(F)F)cc2C1)c1cc2n(n1)CC(COC(F)(F)F)O2 (single isomer, unassigned) [196 (isomer B)]
Out: ≤ 5.52

In: Return the recorded pIC50 value; entry: COC1c2cc(C(F)(F)F)ccc2OC[C@@H]1NC(=O)c1cc2n(n1)CCC(COCC(F)(F)F)O2 (single isomer, unassigned) [598 (isomer B)]
Out: 5.52 to 6.00

In: Return the recorded pIC50 value; entry: O=C(N[C@H]1COc2ccc(COCC(F)(F)F)cc2C1)c1cc2n(n1)CCC(CCOC(F)F)O2 (stereo partly shown) [Example 149]
Out: 5.52 to 6.00

In: Return the recorded pIC50 value; entry: O=C(N[C@H]1COc2ccc(Cl)cc2C1)c1cc2n(n1)CCN(CC(F)(F)C1CC1)C2
Out: ≤ 5.52

In: Return the recorded pIC50 value; entry: N#Cc1ccc2c(c1)C[C@@H](NC(=O)c1cc3n(n1)CCN(Cc1ccccc1F)C3)CO2
Out: ≤ 5.52

In: Return the recorded pIC50 value; entry: N#Cc1ccc2c(c1)C[C@@H](NC(=O)c1cc3n(n1)CC(CCOCC1CC1)O3)CO2 (single isomer, unassigned) [202 (isomer B)]
Out: > 6.00

In: Return the recorded pIC50 value; entry: O=C(N[C@H]1COc2ccc(COCC(F)(F)F)cc2C1)c1cc2n(n1)CC(COCC(F)(F)F)O2 (stereo partly shown) [Example 187]
Out: ≤ 5.52

In: Return the recorded pIC50 value; entry: CN1Cc2nc(C(=O)NC3COc4cccc(C(F)(F)F)c4C3)cn2CC1c1ccccc1 (stereo not shown)
Out: 5.52 to 6.00

In: Return the recorded pIC50 value; entry: O=C(N[C@H]1COc2ccc(Cl)cc2C1)c1cc2n(n1)CCC(c1cccnc1)O2 (stereo partly shown)
Out: ≤ 5.52

In: Return the recorded pIC50 value; entry: O=C(N[C@H]1COc2ccc(C(F)(F)F)cc2C1)c1nn2c(c1-c1ccn[nH]1)OCCCC2
Out: > 6.00

In: Return the recorded pIC50 value; entry: O=C(N[C@H]1COc2ccc(CC(F)F)cc2C1)c1cc2n(n1)CCC(COCC(F)(F)F)CO2 (single isomer, unassigned) [601 (isomer B)]
Out: ≤ 5.52

In: Return the recorded pIC50 value; entry: O=C(N[C@H]1COc2ccc(Cl)cc2C1)c1cc2n(n1)CCC(OCC(F)(F)F)CO2 (single isomer, unassigned) [256 (isomer B)]
Out: 5.52 to 6.00
